Molecular target: Caspase-6 (Homo sapiens)
Assay: inhibition of CASP6 peptide cleavage – biochemical, VEID-R110 fluorescence, cherry-pick, dose response (AID 720632)
Counter-ions that a name gives are not always drawn. The source made the active and inactive calls.
test_readout: AC50

[
  {
    "compound": "O=C(COC(=O)c1ccccc1)Nc1ncc([N+](=O)[O-])s1",
    "observed_value": "0.951 µM (active)"
  },
  {
    "compound": "C[C@](N)(Cc1ccc(O)c(O)c1)C(=O)O [METHYLDOPA]",
    "observed_value": "39.2 µM (active)"
  },
  {
    "compound": "CC(=O)NC1C(=O)N(CCN2CCOCC2)c2ccc(F)cc21 (configuration not stated)",
    "observed_value": "16 µM (active)"
  },
  {
    "compound": "O=C(CCO)c1ccc(O)cc1",
    "observed_value": "1.32 µM (active)"
  },
  {
    "compound": "CC[C@@H](CO)NC(=O)[C@@H]1C=C2c3cccc4[nH]cc(c34)C[C@H]2N(C)C1 [METHYLERGONOVINE MALEATE]",
    "observed_value": "7.04 µM (active)"
  },
  {
    "compound": "Cn1c(N)c(N=O)c(=O)n(C)c1=S",
    "observed_value": "6.37 µM (active)"
  },
  {
    "compound": "NC(=O)C1C(=O)c2ccccc2C1(C[N+](=O)[O-])c1ccccc1 (configuration not stated)",
    "observed_value": "38.1 µM (active)"
  }
]

###

Recorded below: AC50, system Cytochrome P450 2D6 (Homo sapiens).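 Note: CYP2D6 member of a cytochrome P450 panel assay.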

[
  {
    "molecule": "CN(C)c1nc(-c2cccc(NS(C)(=O)=O)c2)nc2ccccc12",
    "AC50": "25.1 µM (inconclusive)"
  },
  {
    "molecule": "CCCc1cc2c(n1Cc1ccc(OC)cc1)C(C)C1CN(C(=O)c3ccccc3)C(C)(C(=O)OC)C21 (stereo unspecified)",
    "AC50": "39.8 µM (inconclusive)"
  },
  {
    "molecule": "COC(=O)[C@@]1(Cc2ccccc2)[C@H]2c3cc(C(=O)N(C)C)n(Cc4cc(F)c(F)c(F)c4)c3C[C@H]2CN1C(=O)c1ccccc1",
    "AC50": "25.1 µM (inconclusive)"
  },
  {
    "molecule": "c1ccc(-c2ccc(N3CC[C@@]4(CCCNC4)C3)cc2)cc1",
    "AC50": "39.8 µM (inconclusive)"
  },
  {
    "molecule": "O=C(CCNNC(=O)c1ccncc1)NCc1ccccc1 [NIALAMIDE]",
    "AC50": "7.94 µM (inconclusive)"
  },
  {
    "molecule": "O=C(CCCN1C(=O)c2cccc3cccc(c23)C1=O)N1CCc2ccccc2C1",
    "AC50": "22.4 µM (inconclusive)"
  },
  {
    "molecule": "COc1ccc(/C=C2\\N=C(c3c(-c4ccccc4)noc3C)OC2=O)cc1OC",
    "AC50": "20 µM (inconclusive)"
  },
  {
    "molecule": "CCCN1C(=O)C(NC(C)=O)c2cc(OC)ccc21 (stereo unspecified)",
    "AC50": "0.00562 µM (inconclusive)"
  },
  {
    "molecule": "COc1ccccc1CCn1c(=O)c(-c2ccc(F)c(F)c2)nc2cncnc21",
    "AC50": "31.6 µM (inconclusive)"
  },
  {
    "molecule": "Cn1c(=O)c2nc(-c3ccccc3)oc2c2ccccc21",
    "AC50": "28.2 µM (inconclusive)"
  },
  {
    "molecule": "CC(C)n1nnnc1SCC(=O)c1ccc2c(c1)OCCO2",
    "AC50": "14.1 µM (inconclusive)"
  }
]

###

The following compounds are shown together with reported AC50 values.
Biological target: UniProt:P9WMR3
Test: DnaB intein splicing inhibitors, dose response, biochemical, cell-free fluorescence (AID 449749)
Format: functional
Activity calls are given as the source filed them.

[
  {
    "compound": "CN1CCN(C(c2ccc(Br)cc2)c2cc(Cl)c3cccnc3c2O)CC1 (stereo not given)",
    "AC50": "14.3 µM (active)"
  },
  {
    "compound": "CC(=O)NC1C(=O)N(CCN2CCOCC2)c2ccc(F)cc21 (stereo not given)",
    "AC50": "12.3 µM (active)"
  },
  {
    "compound": "CCc1n[nH]c2c1C(c1cccc(OC(=O)N3CCOCC3)c1)C(C#N)=C(N)O2 (stereo not given)",
    "AC50": "20.3 µM (active)"
  },
  {
    "compound": "CCc1nc(N2CCN(C(=O)CCl)CC2)c2c3c(sc2n1)CC(C)CC3 (stereo not given)",
    "AC50": "1.92 µM (active)"
  },
  {
    "compound": "COCc1n[nH]c2c1C(c1ccccc1F)C(C#N)=C(N)O2 (stereo not given)",
    "AC50": "36.4 µM (active)"
  },
  {
    "compound": "O=c1cc(C23CC4CC(CC(C4)C2)C3)[nH][nH]1",
    "AC50": "2.85 µM (active)"
  },
  {
    "compound": "Cc1nn(-c2ccccc2)c2c1C(c1cccs1)C(C#N)=C(N)O2 (stereo not given)",
    "AC50": "7 µM (active)"
  },
  {
    "compound": "CSc1nc(-c2ccco2)nn1C(=O)c1cccs1",
    "AC50": "28.3 µM (active)"
  },
  {
    "compound": "COc1ccc(NC(=O)Nc2ccc(O)c3ccccc23)cc1",
    "AC50": "18 µM (active)"
  },
  {
    "compound": "O=C1NC(c2ccc(-c3ccccc3[N+](=O)[O-])o2)C(C(=O)c2ccc(Cl)cc2)C(O)(C(F)(F)F)N1 (stereo not given)",
    "AC50": "4.27 µM (active)"
  },
  {
    "compound": "O=C(O)C1Nc2c(O)cc(Cl)c([N+](=O)[O-])c2C2C=CCC12 (stereo not given)",
    "AC50": "12.8 µM (active)"
  },
  {
    "compound": "O=C(O)CN1C(=O)/C(=C\\c2ccc(OC(=O)c3ccco3)cc2)SC1=S",
    "AC50": "165 µM (active)"
  },
  {
    "compound": "Cc1n[nH]c2c1C(c1c(C)nn(C)c1C)C(C#N)=C(N)O2 (stereo not given)",
    "AC50": "4.2 µM (active)"
  },
  {
    "compound": "COc1ccc(-n2c(C)cc(C(=O)CCl)c2C)cc1",
    "AC50": "22.9 µM (active)"
  },
  {
    "compound": "O=C(O)/C=C\\C(=O)Nc1ccc(Oc2ccc(Br)cc2)cc1",
    "AC50": "14.6 µM (active)"
  }
]

###

Biological target: Kallikrein-7 (Homo sapiens, UniProt P49862)
Sequence (P49862 whole entry): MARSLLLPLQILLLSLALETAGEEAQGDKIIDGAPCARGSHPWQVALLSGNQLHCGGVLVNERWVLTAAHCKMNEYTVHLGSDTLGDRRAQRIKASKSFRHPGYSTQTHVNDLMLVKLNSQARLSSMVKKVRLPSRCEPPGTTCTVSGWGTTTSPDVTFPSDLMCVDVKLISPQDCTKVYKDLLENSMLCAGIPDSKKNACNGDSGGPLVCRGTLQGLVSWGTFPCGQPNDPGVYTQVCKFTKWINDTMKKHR
Experiment: Fluorescence Intensity-based biochemical primary high throughput dose response assay to identify activators of kallikrein-7 (K7) zymogen.
Active and inactive are the calls of the source.
Possible outcomes: true (1) (active), false (0) (inactive)

[
  {
    "compound": "Cc1c2cccn2cc[n+]1C",
    "assigned_class": "false (0)"
  },
  {
    "compound": "CN(C)c1cccc2c(S(=O)(=O)NC(=O)[C@H]3O[C@@H](n4cnc5c(N)ncnc54)[C@H](O)[C@@H]3O)cccc12",
    "assigned_class": "true (1)"
  },
  {
    "compound": "CCOC(=O)c1cc2c(=O)n3ccccc3nc2n(CC2CCCO2)/c1=N/C(=O)/C=C/c1ccccc1 (stereo unspecified)",
    "assigned_class": "false (0)"
  },
  {
    "compound": "Cc1cc(NCCCCO)n2c(nc3ccccc32)c1C#N",
    "assigned_class": "false (0)"
  },
  {
    "compound": "CC(C)Nc1nc(-c2ccccc2CO)c2sccc2n1",
    "assigned_class": "false (0)"
  },
  {
    "compound": "COC(=O)Cc1c(C)c2ccc(O)c(CNCc3ccc(OC)c(OC)c3)c2oc1=O",
    "assigned_class": "true (1)"
  }
]

###

Assay: Luminescence Cell-Based Dose Retest to Confirm Inhibitors of Cancer Stem Cells. [Related pubchem assays (depositor defined):AID2717, AID2721]
Format: functional, Homo sapiens
Conditions: Homo sapiens
The source made the active and inactive calls.
test_readout: AC50

[
  {
    "compound": "O=c1c2c3c(sc2nc(NCCO)n1Cc1ccco1)CCCCC3",
    "observed_value": "1.8 µM (active)"
  },
  {
    "compound": "Cc1ccc(C(C#N)c2ccc3c(C(F)(F)F)cc(C(F)(F)F)nc3n2)cc1 (configuration not stated)",
    "observed_value": "1.78 µM (active)"
  },
  {
    "compound": "S=C(Nc1cccc(Cl)c1)N(CCCN1CCCC1)Cc1cccn1Cc1ccc(Cl)cc1",
    "observed_value": "6.16 µM (active)"
  },
  {
    "compound": "Oc1ccc(N=Nc2c(O)ccc3ccccc23)cc1",
    "observed_value": "2.38 µM (active)"
  },
  {
    "compound": "CC(C)(CN1CCN(Cc2ccccc2)CC1)NS(=O)(=O)c1ccccc1",
    "observed_value": "12.7 µM (active)"
  },
  {
    "compound": "NC(=O)CC(NC(=O)Cc1cccc2ccccc12)c1ccc(NCc2ccc(F)cc2)c([N+](=O)[O-])c1 (configuration not stated)",
    "observed_value": "5.46 µM (active)"
  },
  {
    "compound": "Cc1ccc(F)c([C@H]2C3C=CCC(c4ccccc4)C3C(=O)N2Cc2ccccc2)c1 (some centres not stated)",
    "observed_value": "3.71 µM (active)"
  }
]
